# Test system: Bacillus subtilis
# protocol: Antibacterial activity against Bacillus subtilis at 5 ug/disk after 24 hrs by agar-plate diffusion assay
# Format: functional
# condition-description: read-out: IZ
Listing of recorded zone of inhibition at 5 µg/disc by entry.

smi	units	zone of inhibition at 5 µg/disc
COc1c(Br)cc(Br)cc1Oc1c(O)c(Br)c(Br)c(Br)c1Br	mm	10
Oc1ccc(Br)cc1Oc1cc(Br)cc(Br)c1O	mm	8
Oc1cc(Br)c(Br)c(Br)c1Oc1cc(Br)cc(Br)c1O	mm	13

###

Below is a list of entries, each paired with its recorded zone of inhibition at 10 µg/disc value.
# Tested on: Bacillus subtilis
# protocol: Antibacterial activity against Bacillus subtilis at 10 ug/disk after 24 hrs by agar-plate diffusion assay
# Type: functional
# condition-description: read-out: IZ
attribute-measured: zone of inhibition at 10 µg/disc (mm)

smi	assay-value
Oc1c(Br)cc(Br)cc1Oc1c(O)c(Br)c(Br)c(Br)c1Br	12
Oc1cc(Br)ccc1Oc1cc(Br)cc(Br)c1O	13
COc1c(Br)cc(Br)c(Br)c1Oc1cc(Br)cc(Br)c1O	13
COc1c(Br)cc(Br)cc1Oc1c(O)cc(Br)c(Br)c1Br	10
Oc1cc(Br)cc(Br)c1Oc1cc(Br)cc(Br)c1O	18
Oc1cc(Br)c(Br)c(Br)c1Oc1cc(Br)cc(Br)c1O	16
COc1c(Br)cc(Br)cc1Oc1c(Br)ccc(Br)c1OC	0
COc1c(Br)cc(Br)cc1Oc1c(Br)cc(Br)c(Br)c1O	14
COc1c(Br)cc(Br)cc1Oc1c(Br)c(Br)c(Br)c(Br)c1OC	0
COc1cc(Br)c(Br)c(Br)c1Oc1cc(Br)cc(Br)c1OC	0
Oc1c(Br)cc(Br)cc1Oc1c(Br)ccc(Br)c1O	20
COc1ccc(Br)cc1Oc1c(Br)c(Br)cc(Br)c1OC	0
Oc1ccc(Br)cc1Oc1cc(Br)cc(Br)c1O	11
COc1c(Br)c(Br)c(Br)c(Br)c1Oc1cc(Br)cc(Br)c1O	0
Oc1c(Br)cc(Br)cc1Oc1c(Br)cc(Br)c(Br)c1O	10
COc1cc(Br)cc(Br)c1Oc1cc(Br)cc(Br)c1OC	0
COc1c(Br)c(Br)cc(Br)c1Oc1cc(Br)cc(Br)c1O	9
COc1c(Br)cc(Br)cc1Oc1c(O)c(Br)c(Br)c(Br)c1Br	13
Oc1c(Br)cccc1Oc1cc(Br)c(Br)c(Br)c1O	13
Oc1ccc(Br)cc1Oc1c(O)ccc(Br)c1Br	18
Oc1ccccc1Oc1c(O)cc(Br)cc1Br	14
Oc1ccc(Br)cc1Oc1c(O)c(Br)cc(Br)c1Br	17
COc1c(Br)cc(Br)cc1Oc1c(Br)cc(Br)c(Br)c1OC	0
Brc1cc(Br)c2c(c1)Oc1c(Br)c(Br)c(Br)c(Br)c1O2	14
COc1ccc(Br)cc1Oc1c(OC)ccc(Br)c1Br	0
COc1cc(Br)c(Br)c(Br)c1Oc1cc(Br)cc(Br)c1O	0
COc1c(Br)cc(Br)cc1Oc1ccc(Br)cc1Br	0

Value source: ChEMBL document CHEMBL1142942
